The values you see were collected from patent US20240336909A1.

- TARGET_SYSTEM: T1, human EpCAM protein (human, UniProt P16422 24-265)
- T1 construct: biotinylated in the Octet assays; also called hu EpCAM; biotinylated human EpCAM protein
- T1 sequence (looked up): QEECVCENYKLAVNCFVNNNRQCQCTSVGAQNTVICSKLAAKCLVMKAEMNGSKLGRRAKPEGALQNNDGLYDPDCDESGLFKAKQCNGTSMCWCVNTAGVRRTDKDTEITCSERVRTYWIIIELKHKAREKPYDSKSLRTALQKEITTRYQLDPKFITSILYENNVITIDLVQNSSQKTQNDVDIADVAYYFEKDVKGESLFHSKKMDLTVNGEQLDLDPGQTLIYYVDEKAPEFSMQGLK
- TEST_METHOD_NOTES: colorimetric ELISA
Reported ELISA absorbance is given for each of the following binders.

# BINDER, ELISA absorbance
data = [
    ("Llama anti-EpCAM single domain antibody EPL118 (VHH, E. coli periplasmic extract) VHH: QVQLQESGGGLVQAGGSLRLSCAASGFIFRAASMGWFRQSPGNERELVATVSSGDFTNYADSVKGRFTISRDNAKNTVYLQMNSLKPEDTAVYFCGATFVRSDGHHTIYGQGTQVTVSS", "3.4 absorbance"),
    ("Llama anti-EpCAM single domain antibody EPL117 (VHH, E. coli periplasmic extract) VHH: QVQLQESGGGLVQAGGSLRLSCAASGNIVRMTNMAWYRQAPGKQREFVATISAGGSTTYVDSVKDRFTISRDNTKNTVYLQMNYLKPEDTAVYYCATGSILTNRGAIPGSWGHGTQVTVSS", "0.9 absorbance"),
    ("Llama anti-EpCAM single domain antibody EPL78 (VHH, E. coli periplasmic extract) VHH: QVQLQESGGGLVQPGGSLRLSCATSANRFNINVMGWYRQAPGQQRELVATINIGGSTDYADSVKGRFTISRDNAKNTVYLQLSDLKPEDTAVYYCNVKLRVSGPTGPNVYWGQGTQVTVSS", "3.1 absorbance"),
    ("Llama anti-EpCAM single domain antibody EPL145 (VHH, E. coli periplasmic extract) VHH: QVQLQESGGGLVQAGGSLRLSCAASGFIFRAASMGWFRQSPGNERELVATVSSGGFTNYADSVKGRFTISRDNAKNTVYLQMNSLKPEDTAVYFCGATFVRSDGHHTIYGQGTQVTVSS", "0.6 absorbance"),
]
